Provenance of the data: patent US20110118447A1

assayed-system: binding partner of C5A (XPA23)
assay-details: Biacore
reported-metric: fold affinity vs original

* C5A (XPA23) VH K31H (antibody, V domains shown) VH: EVQLLESGGGLVQPGGSLRLSCAASGFTFSHYFMFWVRQAPGKGLEWVSVISPSGGMTRYADSVKGRFTISRDNSKNTLYLQMNSLRAEDTAVYYCARVGYGGNSDYWGQGTLVTVSS VL: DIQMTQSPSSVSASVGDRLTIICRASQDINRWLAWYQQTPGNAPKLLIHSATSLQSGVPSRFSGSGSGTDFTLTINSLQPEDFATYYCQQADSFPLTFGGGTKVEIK | 1.11 fold
* C5A (XPA23) VH T58W (antibody, V domains shown) VH: EVQLLESGGGLVQPGGSLRLSCAASGFTFSKYFMFWVRQAPGKGLEWVSVISPSGGMWRYADSVKGRFTISRDNSKNTLYLQMNSLRAEDTAVYYCARVGYGGNSDYWGQGTLVTVSS VL: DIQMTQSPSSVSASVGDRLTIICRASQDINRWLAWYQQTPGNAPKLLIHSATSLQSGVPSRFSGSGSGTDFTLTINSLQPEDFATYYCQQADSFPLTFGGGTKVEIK | 0.93 fold
* C5A (XPA23) VH Y107Q (antibody, V domains shown) VH: EVQLLESGGGLVQPGGSLRLSCAASGFTFSKYFMFWVRQAPGKGLEWVSVISPSGGMTRYADSVKGRFTISRDNSKNTLYLQMNSLRAEDTAVYYCARVGYGGNSDQWGQGTLVTVSS VL: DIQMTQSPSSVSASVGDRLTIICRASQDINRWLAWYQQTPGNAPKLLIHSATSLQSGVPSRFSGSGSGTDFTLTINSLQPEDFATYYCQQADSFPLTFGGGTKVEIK | 0.87 fold
